Test system: T-47D breast
Experiment: NCI-60 one-dose screen, 48 h
Conditions: 10 µM
This is part of a sample that, as a whole, favours compounds with a hit. Of some 83,000 tested, about 20% had one in any assay. The source made the active and inactive calls. Rule for the calls: active = growth percent below 10; inactive = the rest.
Classes to choose from: active, inactive

// query Test call, this compound: CCC1NC(=O)c2cc(S(N)(=O)=O)c(Cl)cc2N1 (centres undefined)
// result inactive

// query Which outcome was entered for the compound COc1ccc(C(=O)N2C=Cc3ccccc3C2C#N)cc1 (centres undefined) in this test?
// result inactive

// query Each compound tested received a call. Report the one for O=C1/C=C/[C@@H](O)[C@@H]2C[C@@H](O)C[C@H]2/C=C/CCC[C@H](CCc2ccc(C(F)(F)F)cc2)O1 .
// result active

// query So what was the verdict on C[C@@H](O)[C@H]1C(=O)N2C(C(=O)O)=C(SC3CN[C@H](C(=O)N(C)C)C3)[C@H](C)[C@H]12 (some centres undefined) in this test?
// result inactive

// query How did this test come out for O=C(Nc1ccc(F)cc1)c1cc2ccccc2cc1O ?
// result inactive

// query Which outcome did this test record for the compound NC(N)=N/N=C(\c1ccccc1)C(O)c1ccccc1 (centres undefined) ?
// result inactive

// query Hi team, can someone confirm the assay call for O=C1c2ccccc2-c2c1c1cccnc1c(=O)n2C[C@H](O)CO ?
// result inactive

// query Status in this test for S=C(SSC(=S)N(c1ccccc1)c1ccccc1)N(c1ccccc1)c1ccccc1 ?
// result inactive

// query Check the results log: what was the call for CCn1c(CSc2nc3ccccc3c(=O)n2CCc2ccccc2)n[nH]c1=S ?
// result inactive

// query Please let me know the test result on file for N#Cc1cnn(C(=O)c2nn(-c3ccc(Cl)cc3)cc2O)c1N .
// result active

Next:
// query Recorded call for CN(C)CCOc1ccc(-c2nc3sccn3c2-c2ccnc(S(C)(=O)=O)n2)cc1 ?
// result inactive

// query Call for entry CCN(CC)CCOc1cccc2c1C(=O)c1ccccc1C2=O :
// result inactive

// query For CC(=O)C1CCC2C3CC=C4CC(SC(=N)N)CCC4(C)C3CCC12C (centres undefined) , which call appears in the assay record?
// result inactive
